Field: self-cleavage. Provide a value for each of the variants that follow.
B1: CPEB3 Ribozyme (parent)
chain: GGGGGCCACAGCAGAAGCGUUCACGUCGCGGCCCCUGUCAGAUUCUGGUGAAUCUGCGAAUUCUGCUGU

# Variants of: B1
# methodNotes: self-cleavage, relative activity (ratio to wild type); higher = more cleavage; co-transcriptional
API doc: respond with a numeric literal and nothing else, no unit.

// returns reported self-cleavage for input G17C G65C 0.195

// returns reported self-cleavage for input C29U C63G 0.198

// returns reported self-cleavage for input C12G G37C 0.205

// returns reported self-cleavage for input G19C U67C 0.203

// returns reported self-cleavage for input C35U A40U 0.717

// returns reported self-cleavage for input G5A C34A 0.203
